I'd appreciate it if you could supply MIC values for the items below.
# Tested on: Escherichia coli (ATCC25922)
# assay.notes: MIC, broth microdilution (CLSI), Escherichia coli ATCC25922
# settings: ATCC25922, read-out: E. coli MIC, Table 15, NI = No inhibition
Give the value in µg/mL but do not write µg/mL after it.

Challenge: Quick check: MIC on Escherichia coli (ATCC25922), item Cl.FC(F)(F)c1cc(NC2CCN(CCN3CCNCC3)CC2)c2c(c1)Sc1cc(Br)ccc1N2 ?
Response given: 8

Challenge: Quick check: MIC on Escherichia coli (ATCC25922), item Cl.Cl.NC1CCCC(C(=O)Nc2cc(C(F)(F)F)cc3c2Nc2ccc(Br)cc2S3)C1 (stereo not drawn) ?
Response given: 16

Challenge: Quick check: MIC on Escherichia coli (ATCC25922), item Cl.NC1CCCC(CNc2cc(C(F)(F)F)cc3c2Nc2ccc(Br)cc2S3)C1 (stereo not drawn) ?
Response given: 64

Challenge: Quick check: MIC on Escherichia coli (ATCC25922), item NC1CCCC(C(=O)Nc2cc(C(F)(F)F)cc3c2Nc2ccccc2S3)C1 (stereo not drawn) ?
Response given: 52

Challenge: Quick check: MIC on Escherichia coli (ATCC25922), item CC1CC(C)CN(c2ccc3c(c2)Sc2cc(N4CCN(CCN)CC4)ccc2N3CCCN)C1.Cl.Cl.Cl.Cl (stereo not drawn) ?
Response given: 128

Challenge: Quick check: MIC on Escherichia coli (ATCC25922), item N[C@H]1CCC[C@@H](C(=O)Nc2cc(C(F)(F)F)cc3c2Nc2ccccc2S3)C1 ?
Response given: 26

Challenge: Quick check: MIC on Escherichia coli (ATCC25922), item Cl.NCCNCCCNc1cc(C(F)(F)F)cc2c1Nc1ccc(N3CCCC3)cc1S2 ?
Response given: 32

Challenge: Quick check: MIC on Escherichia coli (ATCC25922), item Cl.NCCN1CCC(Nc2cc(C(F)(F)F)cc3c2Nc2ccc(N4CCC5CCCC54)cc2S3)CC1 (stereo not drawn) ?
Response given: 16

Challenge: Quick check: MIC on Escherichia coli (ATCC25922), item CC1CC(C)CN(c2ccc3c(c2)Sc2cc(C(F)(F)F)cc(NCCCNCCN)c2N3)C1.Cl (stereo not drawn) ?
Response given: 16

Challenge: Quick check: MIC on Escherichia coli (ATCC25922), item Cl.Cl.NCCN1CCC(Nc2cc(C(=O)NNc3ccccc3)cc3c2Nc2ccccc2S3)CC1 ?
Response given: 64

Challenge: Quick check: MIC on Escherichia coli (ATCC25922), item C[C@@H](N)CC(=O)Nc1cc(C(F)(F)F)cc2c1Nc1ccccc1S2 ?
Response given: 13

Challenge: Quick check: MIC on Escherichia coli (ATCC25922), item NCCC(=O)Nc1cc(C(F)(F)F)cc2c1Nc1ccccc1S2 ?
Response given: 16

Challenge: Quick check: MIC on Escherichia coli (ATCC25922), item FC(F)(F)c1cc(NC2CCNCC2)c2c(c1)Oc1ccccc1N2 ?
Response given: 45

Challenge: Quick check: MIC on Escherichia coli (ATCC25922), item Cl.Cl.NCCN1CCC(Nc2cc(C(F)(F)F)cc3c2Nc2ccc(N4CCC(F)(F)C4)cc2S3)CC1 ?
Response given: 32

Challenge: Quick check: MIC on Escherichia coli (ATCC25922), item Cl.NC1CCCC(C(=O)Nc2cc(C(F)(F)F)cc3c2Nc2ccc(N4CCCC4)cc2S3)C1 (stereo not drawn) ?
Response given: 64

Challenge: Quick check: MIC on Escherichia coli (ATCC25922), item NCCCN1c2ccccc2Sc2cc(-c3cc4ccccc4[nH]3)ccc21 ?
Response given: 12

Challenge: Quick check: MIC on Escherichia coli (ATCC25922), item Cl.NCCNCCCNc1cc(C(F)(F)F)cc2c1Nc1ccc(N3CCC4CCCC43)cc1S2 (stereo not drawn) ?
Response given: 16

Challenge: Quick check: MIC on Escherichia coli (ATCC25922), item NCCCN1c2ccc(-c3cc4ccccc4[nH]3)cc2Sc2cc(N3CCNCC3)ccc21.O=C(O)C(F)(F)F ?
Response given: 36

Challenge: Quick check: MIC on Escherichia coli (ATCC25922), item CC(C)C1CCCN(c2ccc3c(c2)Sc2cc(C(F)(F)F)cc(NC4CCN(CCN)CC4)c2N3)C1.Cl.Cl.Cl (stereo not drawn) ?
Response given: 32

Challenge: Quick check: MIC on Escherichia coli (ATCC25922), item NCCCN1c2ccccc2Sc2cc(-c3cc4ccccc4n3CCN)ccc21.O=C(O)C(F)(F)F.O=C(O)C(F)(F)F ?
Response given: 5

Challenge: Quick check: MIC on Escherichia coli (ATCC25922), item CCOC(=O)c1ccc2c(c1)Sc1cc(-c3cc4ccccc4[nH]3)ccc1N2CCCN ?
Response given: 128

Challenge: Quick check: MIC on Escherichia coli (ATCC25922), item NCC1CCCC(C(=O)Nc2cc(C(F)(F)F)cc3c2Nc2ccccc2S3)C1 (stereo not drawn) ?
Response given: 54

Challenge: Quick check: MIC on Escherichia coli (ATCC25922), item NCCNC(=S)Nc1cc(C(F)(F)F)cc2c1Nc1ccccc1S2 ?
Response given: 16

Challenge: Quick check: MIC on Escherichia coli (ATCC25922), item NCCN1CCC(Nc2cc(C(F)(F)F)cc3c2Nc2ccccc2S3)CC1 ?
Response given: 7

Challenge: Quick check: MIC on Escherichia coli (ATCC25922), item Cl.NCCN1CCC(Nc2cc(C(F)(F)F)cc3c2Nc2ccc(N4CCC(C(N)=O)C4)cc2S3)CC1 (stereo not drawn) ?
Response given: 64
